Measured On: recombinant SARS-CoV-2 Main protease (Mpro) (Severe acute respiratory syndrome coronavirus 2 (2019-nCoV) (SARS-CoV-2))
Assay Procedure: Cov Mpro Biochemical IC50 Assay
Experimental Context: recombinant SARS-CoV-2 Mpro, fluorogenic peptide substrate; read-out: MPro IC50
Result Type: pIC50
Numbers only, as −log10 of the molar value.

Chemical String	pIC50
COc1nn(C)cc1-c1cccc(Cl)c1-c1ccc2c(=O)n(-c3cncc4ccccc34)c(=O)[nH]c2c1	7.83
Cc1cncc(-n2c(=O)[nH]c3cc(-c4ccccc4Cl)sc3c2=O)c1OCC(F)(F)F	7.11
Cc1cc(Cl)ncc1-c1cc2[nH]c(=O)n(-c3cncc4ccccc34)c(=O)c2s1	6.65
CC(C)(O)[C@H](F)CNc1ccc2cncc(-n3c(=O)[nH]c4cc(-c5ccccc5Cl)sc4c3=O)c2c1	8.40

Below: the item to evaluate.
The measured pIC50 associated with "O=c1[nH]c2c(Cl)c(-c3ccccc3Cl)ccc2c(=O)n1-c1cncc2ccccc12" reads 4.85
